Cited source: ChEMBL document CHEMBL1961873

# SYSTEM_TESTED: Tyrosine-protein kinase BTK (Homo sapiens);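 also: values are mean percent inhibition of BTK across replicate measurements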
# SETTINGS: at 1 µM
VALUE_TYPE: inhibition
Please answer using the number first and the unit second.

Guide cases for inhibition, answers given:
# COMPOUND, inhibition
records = [
    ("CC1=C(C(=O)Nc2ccc3[nH]ncc3c2)C(c2ccc(F)cc2)NC(=O)N1 (configuration not stated)", "-1.83%"),
    ("CS(=O)(=O)CCNCc1nc(-c2ccc3ncnc(Nc4ccc(F)c(Cl)c4)c3c2)cs1", "4.51%"),
    ("NS(=O)(=O)c1cccc(-c2ccc3c(NC(=O)C4CC4)n[nH]c3c2)c1", "-1.52%"),
    ("COc1cc2ncn(-c3cc(OCc4ccccc4C(F)(F)F)c(C(N)=O)s3)c2cc1OC", "-1.82%"),
    ("CN1CCC(C(=O)Nc2n[nH]c3nnc(-c4ccccc4)cc23)CC1", "-0.24%"),
]

# batch: return inhibition for each of the 2 compounds below
1. Fc1cccc(COc2ccc(Nc3ncnc4cc(-c5ccc[nH]5)sc34)cc2Cl)c1
2. CCn1c(-c2nonc2N)nc2ccncc21

OUTPUT:
-4.27%
1.46%
